Test system: recombinant NL4-3 virus (nef section replaced with Renilla luciferase gene) in MT-2 cells
Assay: HIV cell culture assay (antiviral activity, luciferase readout)
Type: cell-based
Conditions: Renilla, NL43, MT-2 cells infected for 4-5 days with recombinant NL4-3 Renilla luciferase virus, serial dilutions of compound
experimentalEndpoint: pEC50
One number for each entry, as −log10 of the molar value.

Some compounds with known pEC50 results, for comparison:
- Cn1nc(NS(C)(=O)=O)c2c(Cl)ccc(-n3c([C@H](Cc4cc(F)cc(F)c4)NC(=O)Cn4nc(C(F)F)c5c4C(F)(F)[C@@H]4C[C@H]54)nc4cc(-c5ccc(F)c(F)c5F)ccc4c3=O)c21: 9.15
- COc1ccc(-c2ccc3c(=O)n(-c4ccc(Cl)c5c(NS(C)(=O)=O)nn(C)c45)c([C@H](Cc4cc(F)cc(F)c4)NC(=O)Cn4nc(C(F)F)c5c4C(F)(F)[C@@H]4C[C@H]54)nc3c2)cn1 (atropisomer, axis not shown; (aR)): 9.47
- O=C(Cn1nc(C(F)F)c2c1C(F)(F)[C@@H]1C[C@H]21)N[C@@H](Cc1cc(F)cc(F)c1)c1nc2cc(-c3ccncc3)ccc2c(=O)n1-c1ccc(S(=O)(=O)N2CCOCC2)cc1: 9.00

// moving on: another record for pEC50
stdin: Provide measured pEC50 value, entry: CNC(=O)c1ccc(-c2ccc3c(=O)n(-c4ccc(Cl)c5c(NS(C)(=O)=O)nn(C)c45)c([C@H](Cc4cc(F)cc(F)c4)NC(=O)Cn4nc(C(F)F)c5c4C(F)(F)[C@@H]4C[C@H]54)nc3c2)cc1 (atropisomer, axis not shown; (aR))
stdout: 9.32

---

Test system: recombinant NL4-3 virus (nef section replaced with Renilla luciferase gene) in MT-2 cells
Assay: HIV cell culture assay (antiviral activity, luciferase readout)
Assay type: cell-based
Details: Renilla, NL43, MT-2 cells infected for 4-5 days with recombinant NL4-3 Renilla luciferase virus, serial dilutions of compound
experimentalEndpoint: EC50 (nM)
Give bare numbers, in nM.

• Cn1nc(NS(C)(=O)=O)c2c(Cl)ccc(-n3c([C@H](Cc4cc(F)cc(F)c4)NC(=O)Cn4nc(C(F)F)c5c4C(F)(F)[C@@H]4C[C@H]54)nc4cc(-c5ccc(F)c(F)c5)ccc4c3=O)c21 = 0.68

// moving on: another record for EC50
stdin: Provide measured EC50 value, entry: Cn1nc(NS(C)(=O)=O)c2c(Cl)ccc(-n3c([C@H](Cc4cc(F)cc(F)c4)NC(=O)Cn4nc(C(F)F)c5c4C(F)(F)[C@@H]4C[C@H]54)nc4cc(-c5ccccc5F)ccc4c3=O)c21 (single isomer, unassigned) [Example 5]
stdout: 62.7

---

For each entry below, report its CC50 at 4 day value.
Experiment: Compound cytotoxicity, XTT-based colorimetric assay
Type: cell-based
Conditions: human, uninfected MT2 cells, day 4, XTT

Some compounds with known CC50 at 4 day results, for comparison:
• O=C(Cn1ccc(C2CC2)n1)N[C@@H](Cc1cc(F)cc(F)c1)c1nc2cc(-c3c(Cl)cccc3Cl)ccc2c(=O)n1-c1ccc(S(=O)(=O)N2CCOCC2)cc1 = > 1000 nM
• Cc1cc(-c2ccc3c(=O)n(-c4ccc(Cl)c5c(NS(C)(=O)=O)nn(C)c45)c([C@H](Cc4cc(F)cc(F)c4)NC(=O)Cn4nc(C(F)F)c5c4C(F)(F)[C@@H]4C[C@H]54)nc3c2)ccc1Cl (atropisomer, axis not shown; (aR)) = > 1000 nM
• O=C(Cn1nc(C(F)F)c2c1C(F)(F)[C@@H]1C[C@H]21)N[C@@H](Cc1cc(F)cc(F)c1)c1nc2cc(-c3ccc(Cl)cc3Cl)ccc2c(=O)n1-c1ccc(S(=O)(=O)N2CCOCC2)cc1 = > 1000 nM
• CS(=O)(=O)Nc1nn(CC(F)F)c2c(-n3c([C@H](Cc4cc(F)cc(F)c4)NC(=O)Cn4nc(C(F)F)c5c4C(F)(F)[C@@H]4C[C@H]54)nc4cc(-c5ccccc5F)ccc4c3=O)ccc(Cl)c12 = > 500 nM
• Cn1nc(NS(C)(=O)=O)c2c(Cl)ccc(-n3c([C@H](Cc4cc(F)cc(F)c4)NC(=O)Cn4nc(C(F)F)c5c4C(F)(F)[C@@H]4C[C@H]54)nc4cc(-c5ccc(F)c(C#N)c5)ccc4c3=O)c21 (atropisomer, axis not shown; (aR)) = > 1000 nM
• Cn1nc(NS(C)(=O)=O)c2c(Cl)ccc(-n3c([C@H](Cc4cc(F)cc(F)c4)NC(=O)Cn4nc(C(F)F)c5c4C(F)(F)[C@@H]4C[C@H]54)nc4cc(-c5cccc(C(C)(C)C)c5)ccc4c3=O)c21 (atropisomer, axis not shown; (aR)) = > 1000 nM

// each listed compound needs a value for CC50 at 4 day
1. CC(C)Oc1ccccc1-c1ccc2c(=O)n(-c3ccc(Cl)c4c(NS(C)(=O)=O)nn(C)c34)c([C@H](Cc3cc(F)cc(F)c3)NC(=O)Cn3nc(C(F)F)c4c3C(F)(F)[C@@H]3C[C@H]43)nc2c1
2. CC(C)S(=O)(=O)c1ccccc1-c1ccc2c(=O)n(-c3ccc(Cl)c4c(NS(C)(=O)=O)nn(C)c34)c([C@H](Cc3cc(F)cc(F)c3)NC(=O)Cn3nc(C(F)F)c4c3C(F)(F)[C@@H]3C[C@H]43)nc2c1 (atropisomer, axis not shown; (aR))
3. Cn1nc(NS(C)(=O)=O)c2c(Cl)ccc(-n3c([C@H](Cc4cc(F)cc(F)c4)NC(=O)Cn4nc(C(F)F)c5c4C(F)(F)[C@@H]4C[C@H]54)nc4cc(-c5cccc(F)c5CO)ccc4c3=O)c21 (atropisomer, axis not shown; (aR))

stdout:
1: > 500 nM; 2: > 500 nM; 3: > 1000 nM

// each listed compound needs a value for CC50 at 4 day
1. Cc1nccnc1-c1ccc2c(=O)n(-c3ccc(Cl)c4c(NS(=O)(=O)C5CC5)nn(CC(F)F)c34)c([C@H](Cc3cc(F)cc(F)c3)NC(=O)Cn3nc(C(F)F)cc3C(F)F)nc2c1
2. Cn1nc(NS(C)(=O)=O)c2c(Cl)ccc(-n3c([C@H](Cc4cc(F)cc(F)c4)NC(=O)Cn4nc(C(F)F)c5c4C(F)(F)[C@@H]4C[C@H]54)nc4cc(-c5ccc(-c6ccccc6)cc5)ccc4c3=O)c21 (atropisomer, axis not shown; (aR))
3. O=C(Cn1nc(C(F)F)c2c1C(F)(F)[C@@H]1C[C@H]21)N[C@@H](Cc1cc(F)cc(F)c1)c1nc2cc(-c3ccncc3)ccc2c(=O)n1-c1ccc(S(=O)(=O)N2CCOCC2)cc1
4. CC(C(=O)N[C@@H](Cc1cc(F)cc(F)c1)c1nc2cc(-c3ccccc3F)ccc2c(=O)n1-c1ccc(Cl)c2c(NS(=O)(=O)C3CC3)nn(CC(F)F)c12)n1ccc(C2CC2)n1 (single isomer, unassigned)
5. COc1ccnc(-c2ccc3c(=O)n(-c4ccc(Cl)c5c(NS(C)(=O)=O)nn(C)c45)c([C@H](Cc4cc(F)cc(F)c4)NC(=O)Cn4nc(C(F)F)c5c4C(F)(F)[C@@H]4C[C@H]54)nc3c2)n1 (atropisomer, axis not shown; (aR))

stdout:
1. > 500 nM
2. > 1000 nM
3. > 1000 nM
4. > 500 nM
5. > 500 nM

// each listed compound needs a value for CC50 at 4 day
1. Cc1cccc(C)c1-c1ccc2c(=O)n(-c3ccc(S(=O)(=O)N4CCOCC4)cc3)c([C@H](Cc3cc(F)cc(F)c3)NC(=O)Cn3ccc(C4CC4)n3)nc2c1
2. COc1ccc(-c2ccc3c(=O)n(-c4ccc(Cl)c5c(NS(C)(=O)=O)nn(C)c45)c([C@H](Cc4cc(F)cc(F)c4)NC(=O)Cn4nc(C(F)F)c5c4C(F)(F)[C@@H]4C[C@H]54)nc3c2)cc1

stdout:
["> 1000 nM", "> 500 nM"]
